Data provenance is ChEMBL document CHEMBL1201862.

Tested on: HT-29
Assay: NCI tumour cell line growth inhibition, 48 h
Calls of active or inactive are those of the source. Rule as the data show it: active = GI50 up to about 1.1 µM and inactive = higher.
metric: GI50

| molecule | targetOrTestSystem | dataValue |
| --- | --- | --- |
| COc1cc(OC)c(-c2ccc(OCc3ccccc3)c3c(OC)cc(C)cc23)c2c1C(C)=N[C@H](C)C2 | HT-29 | 1.97 µM (inactive) |
| COc1cc(C(N)=O)cc(NC(=O)/C=C/c2ccccc2)c1OC | HT-29 | > 100 µM (inactive) |
| COc1cc(NS(C)(=O)=O)ccc1Nc1ccnc2ccc3[nH]ccc3c12 | HT-29 | 16.8 µM (inactive) |
| COC1(CC[C@H](C)COC2OC(CO)C(O)C(O)C2O)O[C@H]2C[C@H]3[C@@H]4CC=C5C[C@@H](OC6OC(CO)C(O)C(OC7OC(CO)C(O)C(O)C7O)C6OC6OC(C)C(O)C(O)C6O)CC[C@]5(C)[C@H]4CC[C@]3(C)[C@H]2[C@@H]1C (some centres undefined) | HT-29 | 4.57 µM (inactive) |
| COc1cccc(/N=C/c2cc3cc(Br)ccc3nc2Cl)c1 | HT-29 | 27 µM (inactive) |
| O=C(O)CNC(=O)c1ccc([As](=O)(O)O)cc1 | HT-29 | > 100 µM (inactive) |
| C=CCCCCOC1C=CC(O)C(CO)O1 (centres undefined) | HT-29 | > 100 µM (inactive) |
| CN(C)c1nc2n(CCO)c(-c3ccccc3)c(-c3ccccc3)nc-2c(=O)n1 | HT-29 | > 100 µM (inactive) |
| O=C(N/N=C1\C(=O)Nc2c(Cl)cc(Cl)cc21)C(=O)Nc1cccc(C(F)(F)F)c1 | HT-29 | > 100 µM (inactive) |
| Cc1c(C2CCSc3ccccc3N2)sc2ccccc12 (centres undefined) | HT-29 | 54.8 µM (inactive) |
| C=CCc1cccc2cc(C(=O)Nc3ccc(C)cc3)c(=N)oc12 | HT-29 | > 100 µM (inactive) |
| O=CN/C=C/c1cc(O)ccc1O | HT-29 | 22.2 µM (inactive) |
| COC(=O)c1c2c(cc3c1CC1(C3)Cc3ccc4c(c3C1=O)CCC4)CCC2 (centres undefined) | HT-29 | 2.58 µM (inactive) |
| COc1ccccc1N1C(=O)/C(=C/c2ccc(N(CCC#N)CCC#N)cc2C)N=C1c1cc([N+](=O)[O-])ccc1Cl | HT-29 | > 100 µM (inactive) |
| COC(=O)C(=O)OC1(C(C)=O)CC2(c3ccccc3)OC1(c1ccccc1)c1ccccc12 (centres undefined) | HT-29 | 17 µM (inactive) |
| CCOC1OC(CO)C(O)CC1n1ccc(=O)[nH]c1=O (centres undefined) | HT-29 | > 100 µM (inactive) |
| N=C(N)NS(=O)(=O)c1ccc(Nc2c3ccccc3nc3ccc(C(=O)Nc4ccc(S(N)(=O)=O)cc4)cc23)cc1 | HT-29 | > 100 µM (inactive) |
| CC1(C)SC2C(NC(=O)C(C(=O)O)c3ccccc3)C(=O)N2C1C(=O)O (centres undefined) | HT-29 | > 100 µM (inactive) |
| N=C1/C(=C/c2ccccc2)C(=O)N=C2SC=NN12 | HT-29 | > 100 µM (inactive) |

---

Test system: XF498
Assay: NCI tumour cell line growth inhibition, 48 h
Active and inactive are the calls of the source. Cut-off read from the data, not from the text of the source: active = GI50 up to about 1.1 µM and inactive = higher.
Classes used: active, inactive

| compound | classAssignment |
| --- | --- |
| CN(C)CCC1(C2=CCCC2)CC/C(=C\c2ccc(Cl)cc2)C1=O (stereo unspecified) | inactive |
| C=C(COC(C)=O)CC(/C=C(\C)CCC=C(C)C)OC(C)=O (stereo unspecified) | inactive |
| CC(O)CN1C(=O)NC(Cc2ccccc2)C1=O (stereo unspecified) | inactive |
| CCOC(=N)CC(=O)c1ccccc1 | inactive |
| OC/C=C(\I)CCCOCOCc1ccccc1 | inactive |
| Cc1cc(NC(=O)C2C3C=CC(O3)C2C(=O)O)no1 (stereo unspecified) | inactive |
| Cc1ccc(S(=O)(=O)OC2CC=CC2)cc1 | inactive |
| CCN(CC)CCNc1c2ccccc2nc2cccc([N+](=O)[O-])c12 | active |
| N/N=C(\C(=O)Nc1c(Cl)cc([N+](=O)[O-])cc1Cl)C(c1cnc2ccc([N+](=O)[O-])cc2n1)[N+](=O)[O-] (stereo unspecified) | inactive |
| Cc1cc(C)c2c(c1)Nc1ccccc1P2c1ccccc1 (stereo unspecified) | inactive |
| O=C(Cc1nc2sc3c(c2c(=O)[nH]1)CCCC3)Nc1ccccc1 | inactive |
